This section presents compounds with their documented AUC(0-inf) values.
# assay: AUC (0 to infinity) in ICR mouse at 1 mg/kg, iv by UPLC-MS/MS analysis
# Format: ADME, organism-based
# Parameters: dose 1 mg/kg, route iv
# protocol conditions: in vivo
Answer format: numeric, ng·h/mL implied, no suffix.

>  <compound>
CN(C)c1cc(F)nc(N2[C@@H]3CCC[C@H]2c2cnc(-c4ncccn4)nc2C3)c1 (single isomer, unassigned)

>  <readout kind>
AUC(0-inf)

>  <endpoint value>
2490

$$$$
>  <compound>
COCCCOc1cc2c(cc1OC)-c1cc(=O)c(C(=O)O)cn1[C@H](C(C)C)C2

>  <readout kind>
AUC(0-inf)

>  <endpoint value>
349

$$$$

--- query ---
State the recorded AUC(0-inf) for this entry: Fc1cc(N2CC(F)C2)cc(N2[C@H]3CC[C@@H]2c2cnc(-c4ncccn4)nc2C3)n1
3410

###

# Test system: Hepatitis B virus
# assay: Antiviral activity against HBV infected in human HepG2.2.15 cells assessed as inhibition of HBV DNA incubated for 6 days with replacement of fresh media for every 72 hrs by real-time qPCR analysis
# Format: functional, organism-based
readout kind: pEC50
When answering, recall that pEC50 equals minus log10 of the concentration in mol/L, and write that number alone.

Worked examples, 2 compounds total:
>  <compound>
COCCN(C)c1cc(F)nc(N2C[C@H]3CC[C@@H]2c2cnc(-c4ncccn4)nc23)c1

>  <pEC50>
6.81

$$$$
>  <compound>
COCCNc1cc(F)nc(N2[C@H]3CC[C@@H]2c2cnc(-c4ncccn4)nc2C3)c1

>  <pEC50>
6.95

$$$$

Request - read-out pEC50 | tested on Hepatitis B virus | compound CS(=O)(=O)N1CCN(c2cc(F)nc(N3[C@@H]4CCC[C@H]3c3cnc(-c5ncccn5)nc3C4)c2)CC1 (single isomer, unassigned)
7.12

Further, for Fc1cc(NCC2CC2)cc(N2[C@H]3CC[C@@H]2c2cnc(-c4ncccn4)nc2C3)n1 ?
6.98

Further, for CN(C)c1cc(N2[C@H]3CC[C@@H]2c2cnc(-c4ncccn4)nc2C3)cc(F)n1 ?
7.05
